system: SW-620; experiment: NCI tumour cell line growth inhibition, 48 h
Active and inactive are the calls of the source. Rule as the data show it: active = GI50 up to about 1.1 µM and inactive = higher.
MEASURED QUANTITY: GI50

// fetch GI50 for Cc1cc(N)c(C)c2c1[nH]c1ccc(O)cc12 ; system: SW-620 39.1 µM (inactive)

// fetch GI50 for CCOC(=O)NC(=S)NC(C)c1ccccc1 (stereo not drawn) ; system: SW-620 > 100 µM (inactive)

// fetch GI50 for O=c1c(O)c(-c2ccccc2)n(O)c2ccc(Cl)cc12 ; system: SW-620 16.6 µM (inactive)

###

tested on: NCI-H226; test: NCI tumour cell line growth inhibition, 48 h
The source made the active and inactive calls. Rule as the data show it: active = GI50 up to about 1.1 µM and inactive = higher.
// one of active, inactive, no free text

Which result was noted for this molecule in the test: CCOC(=O)CNc1c(OCc2ccccc2)c(=O)c1=O inactive

Which result was noted for this molecule in the test: COc1cc(NS(C)(=O)=O)ccc1Nc1c2ccccc2nc2ccccc12 [AMSACRINE] active

Which result was noted for this molecule in the test: Cc1cc(C)c(N[S+]([O-])c2ccc(Cl)cc2)c(C)c1 (stereo not drawn) inactive

Which result was noted for this molecule in the test: COc1cc(N(C)C)ccc1C=c1c2ccccc2n2c1cc(-c1ccccc1)[n+]2C active

Which result was noted for this molecule in the test: CC(C)(C)C1=CC(CCC(=O)Nc2ccccc2[N+](=O)[O-])=NC(S)N1 (stereo not drawn) inactive

Which result was noted for this molecule in the test: O=C1/C(=C/c2ccccc2)N=C2Sc3c([nH]cnc3=O)N12 inactive

Which result was noted for this molecule in the test: CCc1c(OC(C)=O)c2c(NC3OC(COC(C)=O)C(OC(C)=O)C(OC(C)=O)C3OC(C)=O)nc(SC)nc2oc1=O (stereo not drawn) inactive

Which result was noted for this molecule in the test: N=C(N)SCc1ccc2c(c1)S(=O)(=O)c1ccccc1O2 inactive

Which result was noted for this molecule in the test: CC(C)CC(NC(=O)OCc1ccccc1)C(=O)NCCCCC(N)C(=O)NC(CCCCNC(=O)C(CC(C)C)NC(=O)OCc1ccccc1)C(=O)NC(CCCCNC(=O)C(CC(C)C)NC(=O)OCc1ccccc1)C(=O)NC(CCCCNC(=O)C(CC(C)C)NC(=O)OCc1ccccc1)C(=O)NC(CCCCNC(=O)C(CC(C)C)NC(=O)OCc1ccccc1)C(=O)NC(CCCCNC(=O)C(CC(C)C)NC(=O)OCc1ccccc1)C(=O)O (stereo not drawn) inactive

Which result was noted for this molecule in the test: CNC(=O)C1CCc2nnc(-c3ccccc3)n21 (stereo not drawn) inactive

Which result was noted for this molecule in the test: COc1cc(-c2[nH]ccc2Cl)oc1C1=C2N=C3C=C2C(C(C)C)C1CCCCCCCC3 (stereo not drawn) active

Which result was noted for this molecule in the test: CCOC(=O)Cc1nc2ccccc2s1 inactive

Which result was noted for this molecule in the test: CSc1nc2c(N)ncnc2n1C inactive

###

test system: SK-MEL-5; assay: NCI tumour cell line growth inhibition, 48 h
Activity calls are given as the source filed them. Cut-off read from the data, not from the text of the source: active = GI50 up to about 1.1 µM and inactive = higher.
// one of TRUE (active), FALSE (inactive), no free text

Which result was noted for this compound in the test: O=C1CCC[C@@H]2NC[C@@H](c3ccc4c(c3)OCO4)[C@H]12 FALSE

Which result was noted for this compound in the test: COc1cc(-c2[nH]ccc2Cl)oc1C1=C2N=C3C=C2C(C(C)C)C1CCCCCCCC3 (configuration not stated) TRUE

Which result was noted for this compound in the test: CN(O)C(=O)CCCC(=O)NCC(C)(C)CNC(=O)CCCC(=O)N(C)O FALSE

Which result was noted for this compound in the test: O=c1c(NO)c([N+](=O)[O-])cnn1-c1ccccc1 FALSE

Which result was noted for this compound in the test: O=c1[nH]c2c(Nc3c4ccccc4nc4ccccc34)c([N+](=O)[O-])c(Nc3c4ccccc4nc4ccccc34)c([N+](=O)[O-])c2[nH]1 FALSE

Which result was noted for this compound in the test: CC(C(=O)n1nnc2ccccc21)N(c1ccccc1)c1ccccc1 (configuration not stated) FALSE

Which result was noted for this compound in the test: O=CN1CCC23CC(O)CCC2C1Cc1cc(Oc2nnnn2-c2ccccc2)cc(O)c13 (configuration not stated) FALSE

Which result was noted for this compound in the test: CC(=O)O[C@@H]1C=C(C)[C@H](CBr)O[C@@]2(C)CC[C@H](Br)C(C)(C)[C@H]12 FALSE

Which result was noted for this compound in the test: CCCCc1ccc(Nc2nc(Cl)c3ccn(C4CC(Oc5ccc(C)cc5)C(COc5ccc(C)cc5)O4)c3n2)cc1 (configuration not stated) FALSE

Which result was noted for this compound in the test: CCC(=O)O[C@H]1CC[C@H]2[C@@H]3CCC4=C/C(=N/NC(=O)c5cccc6c(=O)c7ccccc7[nH]c56)CC[C@]4(C)[C@H]3CC[C@]12C FALSE

Which result was noted for this compound in the test: NC(=O)N=C(N(Cc1ccccc1)Cc1ccccc1)N(Cc1ccccc1)Cc1ccccc1 FALSE

Which result was noted for this compound in the test: COc1cc(/C=C2\N=C(c3ccccc3)N(c3ccc(C(=O)c4ccccc4)cc3N3C(=O)/C(=C/c4ccc(O)c(OC)c4)N=C3c3ccccc3)C2=O)ccc1O FALSE

Which result was noted for this compound in the test: C=CCn1c(=O)ccn(COCCO)c1=O FALSE

Which result was noted for this compound in the test: C=CCc1cccc2cc(C(N)=O)c(=N)oc12 FALSE

Which result was noted for this compound in the test: CNC(=S)N/N=C(\C)c1cc(OC)ccc1O FALSE

Which result was noted for this compound in the test: CNC(=O)C1CCc2nnc(-c3ccccc3)n21 (configuration not stated) FALSE

Which result was noted for this compound in the test: COc1cccc2c1/c(=C/c1ccc(N(C)C)cc1)c1cc(-c3ccccc3)[n+](C)n12 TRUE

Which result was noted for this compound in the test: CN(C)CN1C(=O)S/C(=C2\C(=O)N(CN(C)C)c3ccccc32)C1=O FALSE

Which result was noted for this compound in the test: NC(=O)c1ncn2c1NC(=O)CC2 FALSE

Which result was noted for this compound in the test: c1cc2nnc1SCCCSc1ccc(nn1)SCCCS2 FALSE

Which result was noted for this compound in the test: O=c1oc2ccccc2cc1-c1csc(Nc2ccc(F)cc2)n1 FALSE

Which result was noted for this compound in the test: O=C(/C=C/c1ccc(Cl)cc1)c1ccccc(=O)c1O TRUE

Which result was noted for this compound in the test: CCOc1ccc2[nH]c3c(C)c4cc[n+](C)cc4c(C)c3c2c1 FALSE

Which result was noted for this compound in the test: COc1ccc2c(c1)-c1nc(=O)n(CCCN(C)C)c3ccc([N+](=O)[O-])c(c13)N2 TRUE

Which result was noted for this compound in the test: c1ccc2sc(C3(N4CCCCC4)CCCCCC3)cc2c1 FALSE

Which result was noted for this compound in the test: CC(C)c1cc(OCC(O)CO)cc(C(C)C)c1 (configuration not stated) FALSE

Which result was noted for this compound in the test: Nc1ncn(C2C=C(CO)C(O)C2O)c(=O)n1 (configuration not stated) FALSE

###

test system: NCI-H23; experiment: NCI tumour cell line growth inhibition, 48 h
The source made the active and inactive calls. Cut-off read from the data, not from the text of the source: active = GI50 up to about 1.1 µM and inactive = higher.
// one of active, inactive, no free text

Which result was noted for this molecule in the test: CC(C(N)=O)N(C)C(=O)c1cc2ccccc2[n+](Cc2ccccc2)c1 (centres undefined) inactive

Which result was noted for this molecule in the test: COc1ccc2c(c1)-c1nc(=O)n(CCCN(C)C)c3ccc([N+](=O)[O-])c(c13)N2 active

Which result was noted for this molecule in the test: Cn1nc(-c2ccccc2)c(C(=O)/C=C/c2ccc(F)cc2)c(N2CCCCC2)c1=O inactive

Which result was noted for this molecule in the test: Nc1nc(I)nc2c1ncn2C1OC(COS(N)(=O)=O)C(O)C1O (centres undefined) active

Which result was noted for this molecule in the test: CC(=O)O[C@@H]1C2=C(C3=C([O-])C4=CC=CC(=O)C4C(=O)C3=C2[N+]#N)[C@H](OC(C)=O)[C@@H](OC(C)=O)[C@]1(C)O (some centres undefined) active

Which result was noted for this molecule in the test: COC(=O)C(=O)C(C(C)=O)C(=O)C(=O)Nc1ccc(C)cc1C (centres undefined) inactive

Which result was noted for this molecule in the test: CCCCCCCCCCCCCCCCCC(=O)OCC(COC(=O)CCCN)OC(=O)CCCN (centres undefined) inactive

Which result was noted for this molecule in the test: COc1cc(C2C(Cl)C(=O)N2NC(=O)c2ccc(N)cc2)ccc1O (centres undefined) inactive

Which result was noted for this molecule in the test: CO/N=C\c1ccc2c(c1)Sc1ccccc1O2 inactive

Which result was noted for this molecule in the test: COC(=O)C1=C(C=O)C2C=CC1C2 (centres undefined) inactive

Which result was noted for this molecule in the test: Cc1cn(C2OC(CO[Si](C)(C)C(C)(C)C)C(N(C)O[Si](C)(C)C(C)(C)C)C2[Se]c2ccccc2)c(=O)[nH]c1=O (centres undefined) inactive

Which result was noted for this molecule in the test: Cc1cc(C)c(N[S+]([O-])c2ccc(Cl)cc2)c(C)c1 (centres undefined) inactive

Which result was noted for this molecule in the test: COC1=C(Br)C(O)C2(C=C1Br)CC(C(=O)NCCCCNC(=O)C1=NOC3(C=C(Br)C(OC)=C(Br)C3O)C1)=NO2 (centres undefined) inactive

Which result was noted for this molecule in the test: CCOP(=O)(C=C=C1CCC2[C@@H]3CCc4cc(OC)ccc4C3CC[C@]12C)OCC (some centres undefined) inactive

Which result was noted for this molecule in the test: COc1ccc(Cc2nc3ccccc3s2)cc1OC inactive

Which result was noted for this molecule in the test: COc1ccc2c(c1)OC1c3ccccc3OCC21 (centres undefined) inactive

Which result was noted for this molecule in the test: O=C(Cn1c2ccc(Br)cc2c2nc3ccccc3nc21)Nc1ccccc1 inactive

Which result was noted for this molecule in the test: CN(C)c1cccc2c(S(=O)(=O)NCCN)cccc12 [DANSYL ETHYLENEDIAMINE] inactive

Which result was noted for this molecule in the test: COC(=O)c1cc(C(=CCC[C@H]2CC[C@@]3(C)C(CCC4C3CC[C@@]3(C)C4CC[C@@H]3C(C)CCCC(C)C)C2)c2cc(Cl)c(OC(=O)c3ccccc3)c(C(=O)OC)c2)cc(Cl)c1OC(=O)c1ccccc1 (some centres undefined) inactive
